# key: entry, value: Activity
measured-target: Cereblon/Ikaros (Homo sapiens) (UniProt Q96SW2+Q13422)
protocol-summary: Protac activity at CRBN/IKZF1 (unknown origin) transfected in HEK293T cells at 100 nM incubated for 24 hrs by flow cytometry analysis relative to control
Type: cell-based
Provide the reading as a plain figure in %.

compound	Activity, %
O=C1CCC(N2Cc3cc(NC(=O)C4=Cc5ccc(OC(F)(F)F)cc5OC4)ccc3C2=O)C(=O)N1 (stereo not given)	11

Please give the measured Activity for this compound: O=C1CCC(N2Cc3cc(NC(=O)Cc4cccc5ccccc45)ccc3C2=O)C(=O)N1 (stereo not given)
97

Same lookup for COc1ccc2cc(C(=O)Nc3ccc4c(c3)CN(C3CCC(=O)NC3=O)C4=O)ccc2c1 (stereo not given) , please.
7

And the next one, O=C1CCC(N2Cc3cc(NC(=O)c4ccc5occc5c4)ccc3C2=O)C(=O)N1 (stereo not given) ?
6

Try this compound next: O=C1CCC(N2Cc3cc(NC(=O)c4cccc(C(=O)c5ccccc5)c4)ccc3C2=O)C(=O)N1 (stereo not given)
60
